B1: LINE1-full (parent)
chain: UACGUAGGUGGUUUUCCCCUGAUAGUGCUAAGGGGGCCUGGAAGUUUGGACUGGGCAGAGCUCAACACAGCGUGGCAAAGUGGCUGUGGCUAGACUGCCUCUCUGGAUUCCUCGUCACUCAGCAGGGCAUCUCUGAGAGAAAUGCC

Variants of: B1
Assay: self-cleavage, relative activity (ratio to wild type); higher = more cleavage; in vitro, sequencing; the parent is a self-cleaving ribozyme

sequenceCode | self-cleavage
UACGUAGGGGGUUUUCCCCUGAUAGUGCUAAGGGGGCCUGGAAGUUUGGACUGGGCAGAGCUCAACACAGCGUGGCAAAGUGGCUGUGGCUAGACUGCCUCUCUGGAUUCCUCGUCACUCAGCAGGGCAUCUCUGAGAGGAAUGCC [U9G A140G] | 0
UACGUAGGUGGUUUUCCCCUGAUAGUGCUAAGGGGGCCUGGAAGUUUGGACUGGGCAGAGCUCAACACAGCGUGGCAAAGUGGCUGUGGCUAGACUGCCUCUCUGGCUUCCUCGUCACUCAGCAGGGCUUCUCUGAGAGAAAUGCC [A107C A129U] | 2.42
UACGUAGGUGGUUUUCCCCUGAUAGUGCUAAGGGGGCCUGGAAGUUUGGACUGGGCAGAGCUCAACACAGCGUGGCAAAGUGGCUGUGGCUAGACUGCCUCUCUGGAUUCCUUGACACUCAGCAGGGCAUCUCUGAGAGAAAUGCC [C113U U115A] | 1.05
UACGUAGGUGGUUUUCCCCUGAUAGUGCUAAGGGGGCCUGGAAGUCUGGACUGGGCAGAGCUCAACACAGCGUGGCAAAGUGGCUGUGGCUAGACUGCCUCUCUGGAUUCCUCGUCACUCAGCAGGGCAUCUCUGAGCGAAAUGCC [U46C A138C] | 0
UACGUAGGUGGUUUUCCCCUGAUAGUGCUAAGGGGGCCUGGAAGUUUGGACUGGGCAGAGCCCAACACAGCGUGGCACAGUGGCUGUGGCUAGACUGCCUCUCUGGAUUCCUCGUCACUCAGCAGGGCAUCUCUGAGAGAAAUGCC [U62C A78C] | 0
UACGUAGGUGGUUUUCCCCUGAUAGUGCUAAGGGGGCCUGGAAGUUUGGACUGGGCAGAGCUCAACACAGCGCGGCAAAGUGGCUGUGGCUAGACUGCCUCUCUGGAUUCCUCGUCACUCAGCAGGGCAUCUCUGAGAGUAAUGCC [U73C A140U] | 1.85
UACGUAGGUGGUAUUCCCCUGAUAGUGCUAAGGGGGCCUGGAAGUUUGGACUGGGCAGAGCUCAACACAGCGUGGCAAAGUGGCUGUGGCUAGACUGCCUCUCUGGAUUCCUCGUCACUCAGCAAGGCAUCUCUGAGAGAAAUGCC [U13A G125A] | 0.72
UACGUAGGUGGUUUUCCCCUGAUAGUGCUAAGGGGGCCUGGAAGUUUGGACUGGGCAUAGCUCAACACAGCGUGGCAAAGUGGCUGCGGCUAGACUGCCUCUCUGGAUUCCUCGUCACUCAGCAGGGCAUCUCUGAGAGAAAUGCC [G58U U87C] | 0.03
UACGUAGGUGGUUUUCCCCUGGUAGUGCUAAGGGGGCCUGGAAGUUUGGACUGGGCAGAGCUCAACAUAGCGUGGCAAAGUGGCUGUGGCUAGACUGCCUCUCUGGAUUCCUCGUCACUCAGCAGGGCAUCUCUGAGAGAAAUGCC [A22G C68U] | 0.98
UACGUAGGUGGUUUUCCCCUGAUAGUGCUAAGGGGGCCUGGGAGUUUGGACUGGGCAGAGCUCAACACAGCGUGGCAAAGUGGCUGUGGCUAGACUGCCUCUCUGGACUCCUCGUCACUCAGCAGGGCAUCUCUGAGAGAAAUGCC [A42G U108C] | 1.55
UACGUAGGAGGUUUUCCCCUGAUAGUGCUAAGGGGGCCUGGAAGUUUGGACUGGGCAGAGCUCAACACAGCGUGGCAAAGUGGCUGUGGCUAGACUGCCUCUCUGGAUUCCCCGUCACUCAGCAGGGCAUCUCUGAGAGAAAUGCC [U9A U112C] | 1.32
UACGUAGGUGGUUUUCCCCUGAUAGUGCUAAGGGGGCCUGGAAGUUUGGACUGGGCAGAGCUCAACACAGCGUGGCAAAGUGGCUGUGGCUAGACUGCCUCUCUGGCUUCCUCGCCACUCAGCAGGGCAUCUCUGAGAGAAAUGCC [A107C U115C] | 1.38
UACGUAGGUGGGUUUCCCCUGAUAGUGCUAAGGGGGCCUGGAAGUUUGGACUGGGCAGAGCUCAACACAGCGUGGCAAAGUGGCUGUGGCUAGACUGCCUCUCUGGAUUCCUUGUCACUCAGCAGGGCAUCUCUGAGAGAAAUGCC [U12G C113U] | 0.66
UACGUAGGUGGUUUUCCCCUGAUAGUGCUAAGGGGGCCUGGAAGUUUGGGCUGGGCAGAGCUCAACACAGCGUGGCAAAGUGGCUGUGGCUAGACUGCCUCUCUGGAUUCCUCGUCACACAGCAGGGCAUCUCUGAGAGAAAUGCC [A50G U119A] | 0.96
UACGUAAGUGGUUUUCCCCUGAUAGUGCUAAGGGGGCCUGGAAGUUUGGACUGGGCAGAGCUCAACACAGCGUGGCAAAGUGGCUGUGGCUAGACUGCCUCUCUGGAUUCCUCGUCACUCAGCAGGGCUUCUCUGAGAGAAAUGCC [G7A A129U] | 1.21
UACGUAGGUGGUUUUCCCCUGAUAGUGCUAAGGGGGCCUGGAGGUUUGGACAGGGCAGAGCUCAACACAGCGUGGCAAAGUGGCUGUGGCUAGACUGCCUCUCUGGAUUCCUCGUCACUCAGCAGGGCAUCUCUGAGAGAAAUGCC [A43G U52A] | 1.43
UACGUAGGUGGUUUUCCCCUGAUAGUGCUAAGGGGGCCUGGAAGUUUGGACUGGGCAGAGCUCAACACAGCGUGGCAAAGUGGCUGUGGCUAGACUGCCCCUCUGGAUUCCUCGUCACUCAGCAGGGCAUCUCUGAGAGAAGUGCC [U100C A142G] | 1.93
UACGUAGGUGGUUUUCCCCUGAUAGUGCUAAGGGGGCCUGGAAGUAUGGACUGGGCAGAGCUCAACACAGCGUGGCAAAGUGGCUGCGGCUAGACUGCCUCUCUGGAUUCCUCGUCACUCAGCAGGGCAUCUCUGAGAGAAAUGCC [U46A U87C] | 0.19
UACGUAGGUGGUUUUCCCCUGAUAGUGCUAAGGGGGCCUGGAAGUUUGGACUGGGCAGAGUUCAACGCAGCGUGGCAAAGUGGCUGUGGCUAGACUGCCUCUCUGGAUUCCUCGUCACUCAGCAGGGCAUCUCUGAGAGAAAUGCC [C61U A67G] | 1.08
UACGUAGGUGGUUUUCCCCUGAUAGUGCUGAGGGGGCCUGGAAGUUUGGACUGGGCAGAGCUCAACACAGCGUGGCAAAGUGGCUGUGGCUAGACUGCCUCUCUGGAUUCCACGUCACUCAGCAGGGCAUCUCUGAGAGAAAUGCC [A30G U112A] | 1.1
UACGUAGGUGGUUUUCCCCUGAUAGUGCUAAGGGGGCCUGGAAGUUUGGACUGGGCAGAGCUCAACACAGCGUGGCAAAGUGGCUGUGGCUAGACUACCUCUCUGGAUUCCUCGUCACUCAGCAGGGCAUCCCUGAGAGAAAUGCC [G97A U132C] | 0.11
UACGUAGGUGGCUUUCCCCUGAUAGUGCUAAGGGGGCCUGGAAGUUUGGACUGGGCAGAGCUCAACACAGCGUGGCAAAGUGGCUGUGGCUAGACUGCCUCUCUGGAUUCCUCGUCACUCAGCAGGGCAUCUCUGAGAGAGAUGCC [U12C A141G] | 1.5
